- system-under-test: 3-hydroxy-3-methylglutaryl-coenzyme A reductase (Rattus norvegicus, UniProt P51639)
- Sequence (P51639 whole entry): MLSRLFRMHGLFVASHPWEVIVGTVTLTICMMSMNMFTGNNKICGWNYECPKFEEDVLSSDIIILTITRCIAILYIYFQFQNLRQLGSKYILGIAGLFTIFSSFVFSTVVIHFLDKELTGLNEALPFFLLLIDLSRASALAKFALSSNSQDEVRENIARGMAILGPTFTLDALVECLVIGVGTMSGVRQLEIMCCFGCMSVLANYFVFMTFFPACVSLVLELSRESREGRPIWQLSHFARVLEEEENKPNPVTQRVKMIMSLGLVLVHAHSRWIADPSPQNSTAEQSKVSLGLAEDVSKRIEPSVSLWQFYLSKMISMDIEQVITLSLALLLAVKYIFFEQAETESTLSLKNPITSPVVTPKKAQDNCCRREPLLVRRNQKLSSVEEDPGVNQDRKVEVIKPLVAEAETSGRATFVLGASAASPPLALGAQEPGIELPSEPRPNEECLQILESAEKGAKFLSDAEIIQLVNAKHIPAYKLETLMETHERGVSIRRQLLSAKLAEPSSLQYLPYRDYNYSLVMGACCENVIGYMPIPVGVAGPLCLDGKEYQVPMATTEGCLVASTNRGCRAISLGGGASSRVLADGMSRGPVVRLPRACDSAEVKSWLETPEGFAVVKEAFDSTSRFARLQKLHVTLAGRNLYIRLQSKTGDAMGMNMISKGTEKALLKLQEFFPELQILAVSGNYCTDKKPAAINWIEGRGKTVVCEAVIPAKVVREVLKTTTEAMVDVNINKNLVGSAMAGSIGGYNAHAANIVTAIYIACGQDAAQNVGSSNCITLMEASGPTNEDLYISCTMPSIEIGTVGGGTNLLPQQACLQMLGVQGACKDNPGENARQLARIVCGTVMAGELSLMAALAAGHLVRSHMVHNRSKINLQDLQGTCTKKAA
- protocol-text: Inhibitory activity against partially purified rat liver HMG-CoA reductase in vitro; 0.17-0.61
measured-attribute: IC50 (nM)

> print(dat)
                                   compound  measured.attribute  recorded.number
1  COc1ccc(CC2CCCc3c2nn(-c2ccc(F)cc2)c3/C=C/[C@@H](O)C[C@@H](O)CC(=O)O)cc1OC (stereo partly specified)                IC50              320

* * *

- System: HepG2
- protocol-text: Tested for ability to inhibit incorporation of [14C]acetate into cholesterol in cultured human hepatoma (HEP-G2) cells; 0.16-0.68
- Assay type: functional, cell-based
pIC50: −log10 of the molar value.
measured-attribute: pIC50

> print(dat)
                                   compound  recorded.number
1  O=C(O)C[C@H](O)C[C@H](O)/C=C/c1c2c(nn1-c1ccc(F)cc1)C(Cc1ccccc1Cl)CCC2 (stereo partly specified)             6.48

* * *

- system-under-test: UniProt:P51639
- protocol-text: Inhibitory activity against partially purified rat liver HMG-CoA reductase in vitro; 0.026-0.34
pIC50: −log10 of the molar value.
measured-attribute: pIC50

> print(dat)
                                   molecule  recorded.number
1  O=C(O)C[C@H](O)C[C@H](O)/C=C/c1c2c(nn1-c1ccc(F)cc1)C(Cc1ccccc1Cl)CCC2 (stereo partly specified)             7.02

Taken from ChEMBL document CHEMBL1126959.
